compound: CCN1CCC(=O)N(c2ccccc2C(C)C)C1=S
melting point: 118 to 122 °C
//
compound: COc1ccc(CNc2nc(N3CCC(C(=O)O)CC3)nc3sc(Cl)cc23)cc1Cl
melting point: > 250 °C
//
compound: CCC(=O)NS(=O)(=O)c1ccc(C2=C(c3ccccc3)C(=O)C(C)(C)O2)cc1Cl
melting point: 191 to 192 °C
//
compound: O=C(O)[C@@H]1C[C@@H](O)CN1CCO
melting point: 202 to 204 °C
//
compound: Cc1cccc(N2CCN(CCC3CN(C)C(=O)O3)CC2)c1 (stereo not given)
melting point: 72 to 74 °C
//
compound: CCCCN(CCCC)S(=O)(=O)N[C@@H](Cc1ccc(NC(=O)c2c(Cl)cncc2Cl)cc1)C(=O)O
melting point: 167 °C
//
compound: CCCCCCCCCCCCCCCCC#CCC(CO)CO
melting point: 55 °C
//
compound: O=C(Nc1ccc(Cc2nnn[nH]2)cc1)C(F)(F)C(F)(F)C(F)(F)C(F)(F)C(F)(F)C(F)(F)C(F)(F)F
melting point: 193 to 194 °C
//
compound: O=P(O)(O)C(O)(Cc1cccc(Cl)c1)P(=O)(O)O
melting point: 198 to 200 °C
//
compound: Cc1oc(C=Cc2cccc(Cl)c2)nc1CC(=O)O
melting point: 214 to 215 °C

---

valueKind: melting point

compound: CCn1c(Cl)c(C=NO)c(=O)n(CC)c1=O
result: 92 to 94 °C
//
compound: COC(=O)c1ccc2[nH]c(-c3ccc(OC)c4nc(C)ccc34)nc2c1
result: 165 to 167 °C
//
compound: O=C(Nc1ccc(Cl)cc1C(=NO)c1ccccc1)C(F)Cl (stereo not given)
result: 110 to 129 °C
//
compound: N#Cc1ccc(OCc2ccncc2)cc1OC(C(=O)O)c1ccccc1 (racemic)
result: 218 to 220 °C
//
compound: C(#Cc1cnc(-c2cccs2)s1)c1ccccc1
result: 94 to 96 °C
//
compound: Cc1ccc(C(=O)Nc2c(NC(=O)CN3CCN(C)CC3)ccc3c2C(=O)c2ccccc2C3=O)cc1
result: 214 to 215 °C
//
compound: Cc1ccc(CCC(=O)NCCCCN2CCN(C(c3ccccc3)c3ccccc3)CC2)cn1
result: 126 to 127 °C
//
compound: Cc1cc(C(N)(C(F)(F)F)C(F)(F)F)cc(C)c1OCC(=O)O
result: 138 °C
//
compound: COC(=O)N=C(NC(=O)OC)Nc1ccc(S(=O)CC(C)C)cc1NC(=O)CS(C)=O (stereo not given)
result: 149 to 150 °C
//
compound: Cc1cc(-c2cccc(CO)c2)cn2cc(-c3ccc(Cl)cc3)nc12
result: 174 to 177 °C
//
compound: N#Cc1ccc(-c2ccc(OCCCCC(=O)NO)cc2)cc1
result: 142 to 143 °C
//
compound: CN(C(=O)OC(C)(C)C)c1cc(Oc2ccc(Cc3ccccc3)cc2)ccc1N
result: 114 to 115 °C
//
compound: COc1cc(Cc2n[nH]c3c2c(=O)n(-c2ccccc2)c2ncccc32)cc(OC)c1
result: 258 to 259 °C
//
compound: O=C1Nc2cc(C(F)(F)F)ccc2C1c1cc(Cl)ccc1O (stereo not given)
result: 266 to 268 °C
//
compound: CCc1nc2c(N)nc3ccccc3c2n1CCCC#Cc1ccccc1
result: 199 to 202 °C
//
compound: Oc1ccc2c(-c3nc4cc(O)ccc4o3)cccc2c1
result: 232 to 234 °C
//
compound: CCOC(=O)C1=C(C)NC(CS(=O)c2ccccc2)=C(C(=O)OCC)C1c1cccc([N+](=O)[O-])c1 (stereo not given)
result: 160 to 162 °C
//
compound: COc1cc(Nc2c(C#N)cnc3ccc(Br)cc23)c(Cl)cc1Cl
result: 232 to 234 °C
//
compound: CCOC(=O)C(COC(=O)COc1ccc(NC(=O)c2ccccc2-c2ccc(C(F)(F)F)cc2)c(C(=O)N(C)C)c1)(C(=O)OCC)c1ccccc1
result: 132 to 138 °C
//
compound: O=C(O)c1ccsc1C(F)F
result: 127 to 128 °C

---

# melting point listing for each entry below
valueKind: melting point

molecule: COc1ccc(Cc2nnc3c4ccccc4c(Nc4cccc(-c5nn[nH]n5)c4)nn23)cc1
result: 292 to 293 °C

molecule: O=C(O)C1Oc2ccc3c(-c4ccccc4)noc3c2O1 (centres undefined)
result: 187 to 190 °C

molecule: O=c1[nH]c2c(c3nc(-c4ccccn4)nn13)CN(Cc1ccccc1)CC2
result: 290 °C

molecule: Oc1ccc(-c2ccc(O)c3cc(O)c(O)cc23)cc1O
result: 224 to 226 °C

molecule: CC(C)(C)CC(C)(C)c1cc(N=Nc2cc(C(F)(F)F)ccc2Cl)c(O)c(C(C)(C)c2ccccc2)c1
result: 120 to 127 °C

molecule: Cc1ccc(S(=O)(=O)NC(=O)OCCc2ccc(-n3c(C(C)(C)C)nc4c(C)nc(C)cc43)cc2)cc1
result: 226 °C

molecule: Cc1cc2c(cc1S(=O)(=O)c1ccc(F)cc1)OC(C(=O)O)O2 (centres undefined)
result: 157 to 158 °C

molecule: Cc1ccccc1S(=O)(=O)NC(=O)c1ccc2c(ccn2Cc2cccc([N+](=O)[O-])c2)c1
result: 208 to 210 °C

molecule: COc1cc(I)cc(OC)c1
result: 73 to 74 °C

---

compound: Cc1oc2cc(C3CCNC(=O)C3)ccc2c1C (stereo not drawn)
melting point: 195 to 197 °C
//
compound: CC1=C(CC(=O)O)c2cc(F)c(F)cc2C1=Cc1ccc(S(C)=O)cc1 (stereo not drawn)
melting point: 200 to 210 °C
//
compound: Fc1cc(F)c(-c2c(F)nc3ncncc3c2F)c(F)c1
melting point: 248 °C
//
compound: CCOCc1nc2c(N)nc3cc(-c4cccnc4)ccc3c2n1CCCCNC(=O)c1ccc(C(OCCN(C)C)c2ccccc2)cc1 (stereo not drawn)
melting point: 157 to 161 °C
//
compound: CN(C(=O)C(C)(C)c1cc(C(F)(F)F)cc(C(F)(F)F)c1)c1cnc(N2CCOCC2)cc1-c1ccccc1Cl
melting point: 134 to 136 °C
//
compound: Cc1ccc(-c2c(C(=O)NCc3cc(C(F)(F)F)cc(C(F)(F)F)c3)n(CCCCCO)c(=O)c3ncccc23)cc1
melting point: 136 to 137 °C
//
compound: CS(=O)(=O)c1ccc(-c2nn(CCc3ccccc3)c(C(F)(F)F)c2-c2ccc(F)cc2)cc1
melting point: 132 to 135 °C
//
compound: COc1ccc(S(=O)(=O)Nc2ccc(-c3ccccc3)cc2)cc1OC
melting point: 171 to 173 °C

---

Listed next: entries and their corresponding melting point.

molecule: CCOC(=O)C1CCc2ccc(N)c(C)c2O1 (stereo unspecified)
melting point: 82 to 85 °C
--
molecule: Cc1cc(NC(=O)C(CS)Cc2ccccc2)cc(C(=O)O)c1 (stereo unspecified)
melting point: 177 to 178 °C
--
molecule: CCOc1ccnc(F)c1NC(=O)OC(C)(C)C
melting point: 130 to 131 °C
--
molecule: COC(=O)c1ccc(Cc2cc3cc(C(F)(F)F)ccc3[nH]2)cc1
melting point: 127 °C
--
molecule: O=C(O)c1ccc(-c2ccccn2)cc1
melting point: 232 to 234 °C
--
molecule: C[C@@H](O)CNC(=O)N1CC(c2ccc(F)cc2)C1
melting point: 104 to 105 °C
--
molecule: CC1=CC(O)C(OC(=O)c2ccc(N)cc2N)C(C)(C)CC1=O (stereo unspecified)
melting point: 185 to 186 °C
--
molecule: Cc1cnc(C(=O)NCCO[N+](=O)[O-])s1
melting point: 110 to 112 °C
--
molecule: Cc1ccc2c(c1)cc(Cc1ccc(C(=O)O)cc1)n2S(=O)(=O)c1cccc(C(C)(C)C)c1
melting point: 161 °C
--
molecule: COc1cc(C=CC#N)cc(OC)c1
melting point: 126 °C
--
molecule: O=C(O)C1CCCc2c(-c3ccc(Cl)cc3)noc2CC1 (stereo unspecified)
melting point: 147 to 150 °C

---

// melting point lookup, one value per entry
valueKind: melting point

compound: OC(CCc1cccnc1)COc1ccc(C=Cc2ccccc2)cc1 (stereo not given)
result: 110 to 111 °C
//
compound: Cn1c(CC#N)ccc1C(=O)c1ccc(Cl)cc1Cl
result: 129 to 130 °C
//
compound: CN(C)C(=O)Cn1nc(-c2ccccc2O)nc1-c1ccccc1O
result: 196 to 197 °C
//
compound: CC12CCC(O)CC1CCC1C2CCC2(CN3CCOCC3)C(O)C(N3CCCC3)CC12 (stereo not given)
result: 218 °C
//
compound: CC(C)OC1=NC(=O)N(C(C)C)S(=O)(=O)N1
result: 164 to 167 °C
//
compound: CCOC(=O)c1cnoc1-c1ccc(F)c(Cl)c1
result: 106 to 107 °C
//
compound: CN1CCN(CCCC2CCN(C(=O)N3c4ccccc4C(=O)Nc4cccnc43)CC2)CC1
result: 213 to 214 °C
//
compound: COc1ccc2[nH]c(SCc3nccc(N4CCCCC4)n3)nc2c1
result: 145 to 147 °C
//
compound: COc1c(C2CCN(CCCCNC(=O)c3sc(-c4ccc(C#N)cc4)nc3CO)CC2)ccc2c1CCCC2
result: 212 °C
//
compound: CC12CCCC(C1)OC2=O (stereo not given)
result: 37 to 38 °C

Origin of values: a melting point compilation (Tetko et al.; mined from patent text by program, amines drawn as free bases though some values may be those of a salt)
